experimentalSystem: VR1 (Homo sapiens)
Sequence (Q8NER1 whole entry): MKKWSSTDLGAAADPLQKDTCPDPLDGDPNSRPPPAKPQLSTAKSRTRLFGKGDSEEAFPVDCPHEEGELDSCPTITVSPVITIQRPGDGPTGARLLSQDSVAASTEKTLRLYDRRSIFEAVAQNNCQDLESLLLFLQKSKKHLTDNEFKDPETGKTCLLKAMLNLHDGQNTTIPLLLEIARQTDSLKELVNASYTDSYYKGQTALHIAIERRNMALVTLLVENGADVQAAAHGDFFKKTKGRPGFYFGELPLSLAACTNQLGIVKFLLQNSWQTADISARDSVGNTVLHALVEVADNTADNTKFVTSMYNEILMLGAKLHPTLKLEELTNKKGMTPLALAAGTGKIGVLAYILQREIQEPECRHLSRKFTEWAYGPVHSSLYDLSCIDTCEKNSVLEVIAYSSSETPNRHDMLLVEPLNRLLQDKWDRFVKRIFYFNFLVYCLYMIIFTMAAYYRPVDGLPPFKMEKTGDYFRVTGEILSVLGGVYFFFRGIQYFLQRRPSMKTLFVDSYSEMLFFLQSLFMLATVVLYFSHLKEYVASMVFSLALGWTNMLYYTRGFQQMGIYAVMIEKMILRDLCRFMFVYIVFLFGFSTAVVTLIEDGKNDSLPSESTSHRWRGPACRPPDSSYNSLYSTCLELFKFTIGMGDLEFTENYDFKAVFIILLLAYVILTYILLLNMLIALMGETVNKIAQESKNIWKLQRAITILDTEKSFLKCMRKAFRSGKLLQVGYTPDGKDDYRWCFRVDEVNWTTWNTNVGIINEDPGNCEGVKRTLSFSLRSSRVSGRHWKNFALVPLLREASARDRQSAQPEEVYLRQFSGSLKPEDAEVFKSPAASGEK
protocolDescription: Calcium uptake assay, low pH (proton) stimulus
Assay type: cell-based
Set-up: expressed in transfected cells; host or cells: T-REx HEK 293 (Invitrogen), pcDNA5/TO vector
appliedConditions: HEK293; 0.3 μM compound; low pH agonist; HEK 293 cells expressing hVR1; read-out: Low pH % Inhib. @ 0.3 μM
measurementName: inhibition at 0.3 µM (%)
Give the number; % is assumed, so skip it.

- compound: "COc1cc(/C=C\\C(F)(F)F)ccc1C(=O)Nc1ccc2c(c1)OCCN2"
  quantitativeReadout: 19
- compound: "Cc1cc(C#CC(C)(C)C)ccc1C(=O)Nc1ccc2c(c1)OCC(CO)O2 (stereo not drawn)"
  quantitativeReadout: 91
- compound: "CC(C)(C)C#Cc1ccc(C(=O)Nc2ccc3c(c2)OCC(CO)N3)c(F)c1 (stereo not drawn)"
  quantitativeReadout: 107
- compound: "COc1cc(C#CC(C)(C)C)ccc1C(=O)Nc1ccc2c(c1)OCCN2"
  quantitativeReadout: 12
- compound: "CC(C)(C)C#Cc1ccc(C(=O)Nc2ccc3c(c2)OC[C@@H](CO)N3)c(Cl)c1"
  quantitativeReadout: 98
- compound: "Cc1nc2cc(NC(=O)c3ccc(/C=C/C(F)(F)F)cc3)ccc2s1"
  quantitativeReadout: 81

Look up inhibition at 0.3 µM for this compound: O=C(Nc1ccc2c(c1)OCC(CO)N2)c1c(F)cc(C#CC2CC2)cc1F (stereo not drawn)
104

Also CC(C)(C)C#Cc1ccc(C(=O)Nc2cccc3cnccc23)c(Cl)n1 ?
10

Also COc1cc(/C=C\C(F)(F)F)ccc1C(=O)Nc1ccc2c(c1)OCCO2 ?
19

Also Cc1cc(C(=O)Nc2cccc3cnccc23)ccc1C#CC(F)(F)F ?
102

Also Cc1cc(/C=C/C(F)(F)F)ccc1C(=O)Nc1cnc2c(c1)CNCC2 ?
54

Also COc1cc(/C=C/C(F)(F)F)ccc1C(=O)Nc1ccc2c(c1)OCCO2 ?
19

Also C/C(=C/C(C)(C)C)c1ccc(C(=O)Nc2ccc3ncccc3c2)cc1 ?
12

Also CN1CCCc2ccc(NC(=O)c3ccc(C#CC4CCCC4)cc3)cc21 ?
78

Also CC(C)(C)C#Cc1ccc(C(=O)Nc2ccc3c(c2)OCCO3)cn1 ?
106

Also Cc1nc2cc(NC(=O)c3ccc(C#CC(C)(C)C)cc3Cl)ccc2s1 ?
107

Also Cc1cc(/C=C/C(F)(F)F)ccc1C(=O)Nc1ccc2sc(CO)nc2c1 ?
110

Also CC(C)/C=C/c1ccc(C(=O)Nc2ccc3ncccc3c2)cc1 ?
34

* * *

experimentalSystem: VR1 (Homo sapiens)
protocolDescription: Calcium uptake assay, low pH (proton) stimulus
Assay type: cell-based
Design: expressed in transfected cells; host or cells: T-REx HEK 293 (Invitrogen), pcDNA5/TO vector
appliedConditions: HEK293; 0.3 μM compound; low pH agonist; HEK 293 cells expressing hVR1; read-out: Low pH % Inhib. @ 0.3 μM
Quick reference: inhibition at 0.3 µM of the listed items.
Give the number; % is assumed, so skip it.

- molecule: "O=C(Nc1cnc2ccccc2c1)c1ccc(C#CC2CC2)cc1 [Compound 47]"
  inhibition at 0.3 µM (%): 55
- molecule: "CC(C)(C)C#Cc1ccc(C(=O)Nc2ccc3c(c2)OC(CO)CO3)cc1 (stereo not drawn) [Compound 82]"
  inhibition at 0.3 µM (%): 76

API: value(readout= inhibition at 0.3 µM, system= VR1 (Homo sapiens), query= CC(C)(C)/C=C/c1ccc(C(=O)Nc2cccc3cnccc23)cc1 [Compound 40] )
86

Also Cc1cc(/C=C/C(F)(F)F)ccc1C(=O)Nc1ccc2cccnc2c1 [Compound 224] ?
82

Also O=C(Nc1ccc2c(c1)OCCO2)c1ccc(C#CC2CC2)cc1F [Compound 145] ?
41

Also CCOc1cc(C(=O)Nc2cccc3cnccc23)ccc1C#CC(C)(C)C [Compound 65] ?
109

Also CC1(C)CNc2ccc(NC(=O)c3ccc(/C=C/C(F)(F)F)cc3)cc2O1 [Compound 72] ?
124

Also O=C(Nc1ccc2c(c1)OCC(CO)N2)c1ccc(/C=C/C(F)(F)F)cc1 (stereo not drawn) [Compound 111] ?
116

Also O=C(Nc1ccc2c(c1)OCC(CO)O2)c1ccc(C#CC2CCCC2)cc1 (stereo not drawn) [Compound 112] ?
88
